target: human TASK-1 (Homo sapiens); assay: Inhibition of recombinant TASK-1 in stably transfected CHO cells, KCl-induced depolarization, voltage-sensitive dye (B-2); format: cell-based; set-up: expressed in transfected cells; host or cells: stably transfected CHO cells; conditions: depolarization induced by 40 mM potassium chloride, some mean values from multiple determinations
Sequence (O14649 whole entry): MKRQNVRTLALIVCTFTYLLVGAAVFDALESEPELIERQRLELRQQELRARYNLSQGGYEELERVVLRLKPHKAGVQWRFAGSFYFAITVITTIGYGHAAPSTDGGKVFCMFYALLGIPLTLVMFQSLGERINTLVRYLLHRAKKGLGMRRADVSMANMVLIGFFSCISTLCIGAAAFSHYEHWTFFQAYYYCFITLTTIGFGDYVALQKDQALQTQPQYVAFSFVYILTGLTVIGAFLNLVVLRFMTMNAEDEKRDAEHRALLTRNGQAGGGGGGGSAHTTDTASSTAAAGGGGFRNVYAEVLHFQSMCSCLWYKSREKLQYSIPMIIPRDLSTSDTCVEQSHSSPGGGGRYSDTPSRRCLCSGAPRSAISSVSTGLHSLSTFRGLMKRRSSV
metric: IC50 (µM)
Give the value, in units of µM, as a plain number.

compound | measurement_units | IC50
Cc1ccc(F)cc1C(=O)N1C2CCC1CN(Cc1c(-c3ccc(Cl)cc3)nc3ccccn13)C2 | µM | 1
CC(C)c1ccc(-c2nc3ccccn3c2CN2CC3CCC2CN3C(=O)C2CCCC2)cc1 (single isomer, unassigned) [Example 63] | µM | 0.49
Cc1ccccc1NC(=O)N1C2CCC1CN(Cc1c(-c3ccc(Cl)cc3)nc3ccccn13)C2 | µM | 2.9
CC(C)(C)OC(=O)N1CC2CCC1CN2Cc1c(-c2ccc(Cl)cc2)nc2ccccn12 (single isomer, unassigned) [Example 16] | µM | 1.3

Q. Kindly indicate its recorded IC50. Item: O=C(c1ccccc1F)N1CC2CCC1CN2Cc1c(-c2ccc(Cl)cc2)nc2ccccn12 (single isomer, unassigned) [Example 36]
A. 0.67

Q. Kindly indicate its recorded IC50. Item: `O=C(Nc1ccccc1Cl)N1C2CCC1CN(Cc1c(-c3ccc(Cl)cc3)nc3ccccn13)C2`
A. 1.8

Q. Kindly indicate its recorded IC50. Item: COc1ccc(F)c(C(=O)N2CC3CCC2CN3Cc2c(-c3ccc(Cl)cn3)nc3ccccn23)n1 (single isomer, unassigned; enantiomer 1) [Example 24]
A. 0.14

Q. Kindly indicate its recorded IC50. Item: `O=C(N1CCSCC1)N1C2CCC1CN(Cc1c(-c3ccc(Cl)cc3)nc3ccccn13)C2`
A. 0.45

Q. Kindly indicate its recorded IC50. Item: `Cc1ccccc1C(=O)N1CC2CCC(C1)N2Cc1c(-c2ccc(Cl)cc2)nc2ccccn12`
A. 0.958

Q. Kindly indicate its recorded IC50. Item: `O=C(Nc1ccc(Cl)cc1)N1C2CCC1CN(Cc1c(-c3ccc(Cl)cc3)nc3ccccn13)C2`
A. 7.7

Q. Kindly indicate its recorded IC50. Item: `O=C(c1cccc(OC(F)(F)F)n1)N1C2COCC1CN(Cc1c(-c3ccc(Cl)cn3)nc3ccccn13)C2`
A. 4.1

Q. Kindly indicate its recorded IC50. Item: O=C(c1ccncc1)N1CC2CCC1CN2Cc1c(-c2ccc(Cl)cc2)nc2ccccn12 (single isomer, unassigned)
A. 2

Q. Kindly indicate its recorded IC50. Item: `Cc1cccc(Cl)c1NC(=O)N1C2CCC1CN(Cc1c(-c3ccc(Cl)cc3)nc3ccccn13)C2`
A. 0.025

Q. Kindly indicate its recorded IC50. Item: `Cc1ccc(NC(=O)N2C3CCC2CN(Cc2c(-c4ccc(Cl)cc4)nc4ccccn24)C3)c(C)c1`
A. 3

* * *

// reported IC50 for each item listed
target: human TASK-3 (Homo sapiens); assay: Inhibition of recombinant TASK-3 in stably transfected CHO cells, KCl-induced depolarization, voltage-sensitive dye (B-2); assay type: cell-based; parameters: expressed in transfected cells; host or cells: stably transfected CHO cells; conditions: depolarization induced by 40 mM potassium chloride, some mean values from multiple determinations
Sequence (Q9NPC2 whole entry): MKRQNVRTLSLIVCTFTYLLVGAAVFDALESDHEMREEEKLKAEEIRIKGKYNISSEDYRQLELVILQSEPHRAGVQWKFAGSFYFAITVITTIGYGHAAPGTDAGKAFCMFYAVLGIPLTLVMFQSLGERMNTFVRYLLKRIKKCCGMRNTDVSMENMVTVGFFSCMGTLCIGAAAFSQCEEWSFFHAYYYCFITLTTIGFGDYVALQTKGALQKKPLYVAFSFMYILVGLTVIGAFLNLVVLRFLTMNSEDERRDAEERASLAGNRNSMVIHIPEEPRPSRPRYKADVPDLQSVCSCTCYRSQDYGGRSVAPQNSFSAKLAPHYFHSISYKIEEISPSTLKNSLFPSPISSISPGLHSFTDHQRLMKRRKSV
Give the value, in units of nM, as a plain number.

Worked set:
compound | target_under_test | measured_value
COc1ccc(F)cc1C(=O)N1C2CCC1CN(Cc1c(-c3ccc(Cl)cc3)nc3ccccn13)C2 | human TASK-3 (Homo sapiens) | 20
CC(C)(C)OC(=O)N1C2CCC1CN(Cc1c(-c3ccc(Cl)cc3)nc3ccccn13)C2 | human TASK-3 (Homo sapiens) | 230
COc1cccc(C(=O)N2CC3CCC(C2)N3Cc2c(-c3ccc(Br)cc3)nc3ccccn23)c1 | human TASK-3 (Homo sapiens) | 400

Q. Kindly indicate its recorded IC50. Item: COc1cccc(C(=O)N2CC3CCC2CN3Cc2c(-c3ccc(Cl)cc3)nc3ccccn23)c1 (single isomer, unassigned) [Example 40]
A. 104
